All figures here come from PubChem BioAssay (NCI).

growth: recorded values
System: HT29 colon
Experiment: NCI-60 one-dose screen, 48 h (100 = growth as untreated, 0 = no growth, -100 = all killed)
Conditions: 10 µM unless noted
Compounds without any hit were thinned out: in the full panel of roughly 83,000, 20% have a hit.
Respond with the bare value in %.

Data request: # lookup: growth of Cn1cc(-c2nonc2-c2cn(C)c3ccc(Br)cc23)c2ccccc21
Data returned: 9.17

Data request: Now give it for CCCCCO/N=C\c1c2c(O)c3c(O)c(C)c4c(c3c1O)C(=O)C(C)(O/C=C\C(OC)C(C)C(OC(C)=O)C(C)C(O)C(C)C(O)C(C)/C=C\C=C(\C)C(=O)N2)O4 (stereo not given) too.
Data returned: 2.51

Data request: Now give it for CCOC(=O)c1c(-c2ccc(OC)cc2)c(C#N)c2c(C#N)c(N)nn2c1N too.
Data returned: 6.58

Data request: Now give it for Cc1ccc2c(c1)C(C)Cc1c(ncnc1-n1cnc3cc(C)ccc31)N2C (stereo not given) too.
Data returned: -10.3

Data request: Now give it for CC(=O)c1c(C)nc(SCC(=O)Nc2ccc(Cl)cc2)n1-c1ccc(Cl)cc1 too.
Data returned: 83

Data request: Now give it for [2H]C([2H])([2H])Oc1cccc(/C=C/C(=O)/C=C(/C=C/c2cccc(OC([2H])([2H])[2H])c2OC([2H])([2H])[2H])OB(F)F)c1OC([2H])([2H])[2H] too.
Data returned: 86.3

Data request: Now give it for COCCn1cc(-c2csc(-c3cn(C)c4ccc(F)cc34)n2)c2cccnc21 too.
Data returned: 35.5

Data request: Now give it for Cc1cnc(C(=O)NNc2nc3sc4c(c3c(=O)[nH]2)C(C)CCC4)cn1 (stereo not given) too.
Data returned: 27.9

Data request: Now give it for COc1ccc(-c2ccc(-c3ccc(C(=N)N)cn3)s2)cc1Cl too.
Data returned: -52.6

Data request: Now give it for CS(=O)(=O)Nc1cc(-c2ccc3ncnc(Nc4ccc(F)c(Cl)c4)c3c2)cnc1Cl too.
Data returned: 9.63
